# System: CCRF-CEM
The entries below are paired with their reported Spearman Coef. (ρ), sphingolipid level vs cytotoxicity.
Write no unit; give the number alone.

compound="CCCCCCCCCCCCCC=CC(O)C(CO)NC(=O)CCCCCCCCCCCCCCCCCCCCCCC (centres unmarked)" assay_result=0.41
compound="CCCCCCCCCCCCCC=CC(O)C(CO)NC(=O)CCCCCCCCCCCCCCCCCCCCC (centres unmarked)" assay_result=0.48

Identify the measured Spearman Coef. (ρ), sphingolipid level vs cytotoxicity of CCCCCCCCCCCCCCCCCC(=O)N[C@@H](CO)[C@H](O)CCCCCCCCCCCCCCC for CCRF-CEM.
0.15

Identify the measured Spearman Coef. (ρ), sphingolipid level vs cytotoxicity of CCCCCCCCCCCCCCCCCCCCCCCC(=O)N[C@@H](CO)[C@H](O)CCCCCCCCCCCCCCC for CCRF-CEM.
0.84

Identify the measured Spearman Coef. (ρ), sphingolipid level vs cytotoxicity of CCCCCCCCC=CCCCCCCCCCCCC(=O)NC(CO)C(O)C=CCCCCCCCCCCCCC (centres unmarked) for CCRF-CEM.
−0.24

Identify the measured Spearman Coef. (ρ), sphingolipid level vs cytotoxicity of CCCCCCCCCCCCCCC[C@@H](O)[C@@H](N)COP(=O)(O)O for CCRF-CEM.
0.38

Identify the measured Spearman Coef. (ρ), sphingolipid level vs cytotoxicity of CCCCCCCCCCCCC/C=C/[C@@H](O)[C@@H](N)CO for CCRF-CEM.
−0.19

Identify the measured Spearman Coef. (ρ), sphingolipid level vs cytotoxicity of CCCCCCCCCCCCCC=CC(O)C(CO)NC(=O)CCCCCCCCCCCCCCC (centres unmarked) for CCRF-CEM.
0.03

Identify the measured Spearman Coef. (ρ), sphingolipid level vs cytotoxicity of CCCCCCCC/C=C\CCCCCCCCCCCCCC(=O)N[C@@H](CO)[C@H](O)/C=C/CCCCCCCCCCCCC for CCRF-CEM.
−0.32

Identify the measured Spearman Coef. (ρ), sphingolipid level vs cytotoxicity of CCCCCCCCCCCCCC=CC(O)C(CO)NC(=O)CCCCCCCCCCCCCCCCC (centres unmarked) for CCRF-CEM.
0.07

Identify the measured Spearman Coef. (ρ), sphingolipid level vs cytotoxicity of CCCCCCCCCCCCCCCC(=O)N[C@@H](CO)[C@H](O)CCCCCCCCCCCCCCC for CCRF-CEM.
0.37

Identify the measured Spearman Coef. (ρ), sphingolipid level vs cytotoxicity of CCCCCCCCCCCCCCC[C@@H](O)[C@@H](N)CO [Sphinganine, (2S,3R)-2-aminooctadecane-1,3-diol, reference compound] for CCRF-CEM.
−0.30

Identify the measured Spearman Coef. (ρ), sphingolipid level vs cytotoxicity of CCCCCCCCCCCCC/C=C/[C@@H](O)[C@H](CO)NC(=O)CCCCCCCCCCCCC for CCRF-CEM.
0.01

Identify the measured Spearman Coef. (ρ), sphingolipid level vs cytotoxicity of CCCCCCCCCCCCCCCCCCCC(=O)N[C@@H](CO)[C@H](O)CCCCCCCCCCCCCCC for CCRF-CEM.
0.32

Identify the measured Spearman Coef. (ρ), sphingolipid level vs cytotoxicity of CCCCCCCC/C=C\CCCCCCCCCCCCCC(=O)N[C@@H](CO)[C@H](O)CCCCCCCCCCCCCCC for CCRF-CEM.
−0.07

Identify the measured Spearman Coef. (ρ), sphingolipid level vs cytotoxicity of CCCCCCCCC=CCCCCCCCCCCCC(=O)NC(CO)C(O)CCCCCCCCCCCCCCC (centres unmarked) for CCRF-CEM.
0.22

Identify the measured Spearman Coef. (ρ), sphingolipid level vs cytotoxicity of CCCCCCCCC=CCCCCCCCC(=O)NC(CO)C(O)C=CCCCCCCCCCCCCC (centres unmarked) for CCRF-CEM.
0.10

Reference for the values: patent US20120121691A1
